Source listed as patent US20220162215A1.

Assay: Tissue distribution, mouse
Type: in vivo
Settings: plasma, dose 10 mg/kg, read-out: Plasma 0.5 h
assay readout: concentration at 0.5 h (ng/g)

>>> test_value("FC(F)(F)c1cc2c(NC3CCCc4ccccc43)ncnc2[nH]1 (stereo not shown) [Compound 15]")
372

###

Test: Tissue distribution, mouse
Assay type: in vivo
Details: plasma, dose 50 mg/kg, read-out: Plasma 0.5 h
assay readout: concentration at 0.5 h (ng/g)

>>> test_value("FC(F)(F)c1cc2c(NC3CCCc4ccccc43)ncnc2[nH]1 (stereo not shown)")
1900

###

Test system: HeLa MKYP cells
Assay: Toxicity / cell death measured by DAPI staining (take-up)
Type: cell-based
Details: Table 3; 50 μM
Documented Toxicity (% positive for DAPI takeup @ 50 μM) across a set of compounds
assay readout: Toxicity (% positive for DAPI takeup @ 50 μM) (%)

>>> test_value("FC(F)(F)c1cc2c(N[C@H]3COc4ccccc43)ncnc2[nH]1")
22.8
>>> test_value("OC[C@@H](Nc1ncnc2[nH]cnc12)c1ccccc1")
8.9
>>> test_value("FC(F)(F)c1cc2c(NC3COCc4ccccc43)ncnc2[nH]1 (stereo not drawn)")
42.9
>>> test_value("c1ccc2c(c1)OCC[C@H]2Nc1ncnc2[nH]cnc12")
16.0
>>> test_value("C[C@H]1CCc2ccccc2[C@@H]1Nc1ncnc2[nH]c(C(F)(F)F)cc12 [Compound 82]")
28.3
>>> test_value("FC(F)(F)c1cc2c(N[C@@H]3COc4ccccc43)ncnc2[nH]1")
29.2
>>> test_value("Oc1ccc2c(c1)CCC[C@H]2Nc1ncnc2[nH]c(C(F)(F)F)cc12")
11.0
>>> test_value("OC1CCc2ccccc2C1Nc1ncnc2[nH]c(C(F)(F)F)cc12 (stereo not drawn)")
12.8
>>> test_value("CO[C@@H]1CCc2ccccc2[C@H]1Nc1ncnc2[nH]c(C(F)(F)F)cc12")
18.4
